# tested-system: Tlp3 LBD (Campylobacter jejuni subsp. jejuni)
# Sequence (Q0P864 entry or part of it): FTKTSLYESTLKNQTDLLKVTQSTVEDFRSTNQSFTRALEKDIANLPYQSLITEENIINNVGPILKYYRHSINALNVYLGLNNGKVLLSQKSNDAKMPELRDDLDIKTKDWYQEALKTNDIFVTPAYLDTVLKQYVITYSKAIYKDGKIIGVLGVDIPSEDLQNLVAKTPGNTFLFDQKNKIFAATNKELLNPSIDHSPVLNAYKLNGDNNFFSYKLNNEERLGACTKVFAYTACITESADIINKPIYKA
# assay-protocol: Fluorescence-based thermal shift assay
# Format: binding, C. jejuni strain NCTC 11168
# assay-conditions: 20 μM protein, 0.8–1.6 mM Biolog compound; Tm free protein 56.3 °C
# Source text: Tlp3 LBD from C. jejuni strain NCTC 11168 was expressed in E. coli, purified according to the previously published procedure and used for high-throughput screening against the compounds from the Biolog Phenotype Microarray (PM) libraries PM1, PM3B, and PM5 using thermal shift assays. […] Protein denaturation was monitored by following changes in the SYPRO Orange fluorescence emission (λex 530 nm/λem 555 nm) that result from the dye binding to the exposed hydrophobic protein regions. […]
parameter-measured: Thermal Shift ∆Tm

Worked set:
> print(dat)
                                compound         result
1  C[C@H](N)C(=O)N[C@H](C(=O)O)[C@H](C)O   1.1 ± 0.3 °C
2                        C[C@H](N)C(=O)O  −0.6 ± 0.7 °C
3                    CC(C)[C@H](N)C(=O)O   1.3 ± 0.1 °C

Hey, can you go through the list below and give me Thermal Shift ∆Tm for every item?
1. COC(=O)C(C)=O [methyl pyruvate]
2. CC(C)C[C@H](N)C(=O)O
3. CCC[C@@H](N)C(=O)O
4. N[C@@H](Cc1ccccc1)C(=O)O
5. Nc1ccn([C@H]2C[C@H](O)[C@@H](CO)O2)c(=O)n1

## Output
−1.8 ± 0.0 °C
2.4 ± 0.2 °C
1.4 ± 0.3 °C
−0.3 ± 0.4 °C
1.4 ± 0.8 °C
